system_tested: human A3 AR (Homo sapiens)
Construct: expressed in transfected cells; host or cells: CHO cells
Sequence (P0DMS8 whole entry): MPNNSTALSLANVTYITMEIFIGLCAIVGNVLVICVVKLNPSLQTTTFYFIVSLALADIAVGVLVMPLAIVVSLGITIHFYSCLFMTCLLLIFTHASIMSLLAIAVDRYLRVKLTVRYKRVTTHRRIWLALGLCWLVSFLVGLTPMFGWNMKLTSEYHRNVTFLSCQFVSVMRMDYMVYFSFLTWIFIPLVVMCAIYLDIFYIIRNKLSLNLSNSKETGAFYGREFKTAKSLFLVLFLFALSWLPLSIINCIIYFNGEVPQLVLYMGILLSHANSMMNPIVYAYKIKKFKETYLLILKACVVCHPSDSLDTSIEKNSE
assay_protocol: Radioligand binding assay at human A3 AR vs. [^3H]PSB-11
condition: at 10,000 nM, read-out: % inhibition of radioligand binding at indicated concentration, A3 vs. [^3H]PSB-11
assay_metric: inhibition at 10 µM (%)

Cn1c(=O)[nH]c(=O)c2c1nc1n2CCN(Cc2cccc(C(F)(F)F)c2)C1 [Compound 13b] = 35
CCn1c(=O)c2c(nc3n2CCN(Cc2cccc(Br)c2)C3)n(C)c1=O [Compound 14b] = 39

(A) Cn1c(=O)c2c(nc3n2CCN(Cc2ccc(Cl)c(Cl)c2)C3)n(C2CC2)c1=O [Compound 17]
(B) Cn1c(=O)[nH]c(=O)c2c1nc1n2CCN(CCc2cccc(Cl)c2)C1 [Compound 13c]
For this pair, A and B , which shows a numerically higher inhibition at 10 µM? Kindly give the label for the entry you pick.
B

----------
List of IC50 values.
system_tested: recombinant human MAO-B (Homo sapiens, UniProt P27338)
Construct: purchased Sigma-Aldrich M7441; host or cells: baculovirus-infected insect cells
Sequence (P27338 whole entry): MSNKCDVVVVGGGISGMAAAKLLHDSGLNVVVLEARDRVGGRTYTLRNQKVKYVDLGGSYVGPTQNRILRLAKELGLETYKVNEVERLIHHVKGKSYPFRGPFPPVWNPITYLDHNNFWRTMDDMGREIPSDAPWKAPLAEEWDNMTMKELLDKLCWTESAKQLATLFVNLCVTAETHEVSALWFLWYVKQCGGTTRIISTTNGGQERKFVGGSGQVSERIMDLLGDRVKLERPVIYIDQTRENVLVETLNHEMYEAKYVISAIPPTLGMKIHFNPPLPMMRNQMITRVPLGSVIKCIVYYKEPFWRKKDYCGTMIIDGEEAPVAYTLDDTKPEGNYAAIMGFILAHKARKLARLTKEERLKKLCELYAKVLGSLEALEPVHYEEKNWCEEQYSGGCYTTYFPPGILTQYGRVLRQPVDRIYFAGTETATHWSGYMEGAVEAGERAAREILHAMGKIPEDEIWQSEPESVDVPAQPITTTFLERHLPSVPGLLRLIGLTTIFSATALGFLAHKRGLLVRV
assay_protocol: Monoamine oxidase assay (Amplex Red), MAO-B
Format: biochemical
condition: n = 3; read-out: IC50 ± SEM, Human MAO-B

Use the examples below as a reference point.
Cn1c(=O)c2c(nc3n2CCN(Cc2ccc(Cl)c(Cl)c2)C3)n(C2CC2)c1=O = 3.69 µM
CCn1c(=O)c2c(nc3n2CCN(Cc2ccccc2Br)C3)n(C)c1=O [Compound 14a] = > 10 µM
CCn1c(=O)c2c(nc3n2CCN(Cc2cccc(F)c2)C3)n(CC)c1=O [Compound 15b] = ≥ 10 µM

Here is the next item to consider.
What the record says about CCn1c(=O)c2c(nc3n2CCN(Cc2cccc(C(F)(F)F)c2)C3)n(C)c1=O [Compound 14e] : IC50 is < 10 µM

----------
system_tested: human A2B AR (Homo sapiens, UniProt P29275)
Construct: expressed in transfected cells; host or cells: CHO cells
Sequence (P29275 1-332): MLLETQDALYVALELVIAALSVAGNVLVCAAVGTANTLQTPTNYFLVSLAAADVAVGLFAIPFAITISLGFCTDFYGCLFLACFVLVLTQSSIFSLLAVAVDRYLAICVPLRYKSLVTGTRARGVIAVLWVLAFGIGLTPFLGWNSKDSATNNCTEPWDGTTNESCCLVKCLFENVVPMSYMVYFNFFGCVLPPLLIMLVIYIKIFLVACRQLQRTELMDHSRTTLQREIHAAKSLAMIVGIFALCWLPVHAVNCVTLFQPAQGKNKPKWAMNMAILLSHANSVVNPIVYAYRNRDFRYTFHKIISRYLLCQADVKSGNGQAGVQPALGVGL
assay_protocol: Radioligand binding assay at human A2B AR vs. [^3H]PSB-603
condition: at 1,000 nM, read-out: % inhibition of radioligand binding at indicated concentration, A2B vs. [^3H]PSB-603
assay_metric: inhibition at 1 µM (%)

(P) C#CCn1c(=O)c2c(nc3n2CCN(Cc2ccc(Cl)c(Cl)c2)C3)n(C)c1=O [Compound 19a]
(Q) Cn1c(=O)[nH]c(=O)c2c1nc1n2CCN(Cc2cccc(C(F)(F)F)c2)C1 [Compound 13b]
(R) C#CCn1c(=O)c2c(nc3n2CCN(Cc2cc(C(F)(F)F)ccc2Cl)C3)n(C)c1=O [Compound 19b]
Provide the items ranked by increasing inhibition at 1 µM. Kindly provide the labels arranged according to the requested ordering.
Q, R, P
